- Tested on: HL-60(TB) leukemia
- protocol.description: NCI-60 one-dose screen, 48 h (100 = growth as untreated, 0 = no growth, -100 = all killed)
- test.parameters: 10 µM unless noted
About 83,000 compounds went through this panel and 20% of them were active in at least one assay; those are over-represented in the sample as a whole.
assay.metric: growth (%)
Field: numeric (%). Do not append units.

[Q] Dear colleague, please send me the reported growth for C=C(CNCCc1ccc(O)cc1)[C@@H]1CC[C@]2(CO)CC[C@]3(C)[C@H](CC[C@@H]4[C@@]5(C)CCC(NCCO)C(C)(C)[C@@H]5CC[C@]43C)[C@@H]12 (stereo not given in full) when you can.
[A] -46.4

[Q] Specify reported growth for the compound shown: O=C1NC(=C(Cl)Cl)/C(=N/S(=O)(=O)N2CCC(C3(C(F)(F)F)N=N3)CC2)N1
[A] 77

[Q] Let me know recorded growth for CC12CCC3c4ccccc4CCC3(CO1)C2 (stereo not given) , thanks.
[A] 87.7

[Q] Find the measured growth of COC1(OC)N=C(N)C2(C#N)C3(C(=O)Nc4ccccc43)C12C#N (stereo not given) and report it.
[A] 72.5

[Q] Using the record for Oc1ccc(CN(Cc2ccc(C(F)(F)F)cc2)Cc2ccc(O)c3ncccc23)c2cccnc12 , state its measured growth.
[A] -11

---

Record form. Attribute: growth. Fill in for each entry.
- Tested on: HL-60(TB) leukemia
- protocol.description: NCI-60 one-dose screen, 48 h (100 = growth as untreated, 0 = no growth, -100 = all killed)
- test.parameters: 10 µM unless noted
This is part of a sample that, as a whole, favours compounds with a hit. Of some 83,000 tested, about 20% had one in any assay. The source made the active and inactive calls. Rule for the calls: active = growth percent below 10; inactive = the rest.

[Q] Kindly indicate its recorded growth. Item: O=c1[nH]c2cc(Cl)c(Cl)cc2o1
[A] 120% (inactive)

[Q] Dear colleague, please send me the reported growth for COc1ccc(C(=O)NC(=O)Nc2cc3c(cc2F)/C(=C/c2[nH]c(C)c(CCC(=O)O)c2C)C(=O)N3)c(F)c1 when you can.
[A] 20.9% (inactive)

[Q] Please report the measured growth for O=C(CN1CCN(c2cc3c(cc2F)c(=O)c(C(=O)N/N=C/c2ccccc2O)cn3C2CC2)CC1)N/N=C\c1ccccc1O
[A] 1.69% (active)

[Q] Supply growth value. Item: Cc1ccsc1-c1ccc2c(c1)COC2(CCCN(C)C)c1ccc(F)cc1 (centres undefined)
[A] 23% (inactive)

---

- System: HL-60(TB) leukemia
- protocol.description: NCI-60 one-dose screen, 48 h (100 = growth as untreated, 0 = no growth, -100 = all killed)
- test.parameters: 10 µM unless noted
Compounds without any hit were thinned out: in the full panel of roughly 83,000, 20% have a hit.
assay.metric: growth (%)
Expressed in %, but write only the number.

[Q] Could you please provide reported growth for COc1ccc(-c2nnc(SC/C(=N\O)c3ccccc3)o2)cc1 ? Thanks!
[A] 86.8

[Q] Supply reported growth belonging to this compound: CN1C(=O)/C(=C/c2cn(-c3ccccc3)nc2-c2ccccc2)SC1=S
[A] 109

[Q] # return recorded growth for input CCCCCCCOc1c(OC)cc(C2CC(=O)Nc3c2c(C)nn3-c2nc3ccccc3[nH]2)cc1OC (stereo not given)
[A] 10.5

[Q] Find the measured growth of Cc1cccc2nnc(-c3ccccc3)n12 and report it.
[A] 99

[Q] Report measured growth; entry is O=C(O)CCCN1C(=O)C2C3CCC(C3)C2C1=O (stereo not given)
[A] 116
